Each recorded value in this set is attributed to patent US10202339B2.

experimentalTarget: IDH2 R140Q (Homo sapiens (Human), UniProt P48735, R140Q)
Sequence (P48735 40-452 R140Q): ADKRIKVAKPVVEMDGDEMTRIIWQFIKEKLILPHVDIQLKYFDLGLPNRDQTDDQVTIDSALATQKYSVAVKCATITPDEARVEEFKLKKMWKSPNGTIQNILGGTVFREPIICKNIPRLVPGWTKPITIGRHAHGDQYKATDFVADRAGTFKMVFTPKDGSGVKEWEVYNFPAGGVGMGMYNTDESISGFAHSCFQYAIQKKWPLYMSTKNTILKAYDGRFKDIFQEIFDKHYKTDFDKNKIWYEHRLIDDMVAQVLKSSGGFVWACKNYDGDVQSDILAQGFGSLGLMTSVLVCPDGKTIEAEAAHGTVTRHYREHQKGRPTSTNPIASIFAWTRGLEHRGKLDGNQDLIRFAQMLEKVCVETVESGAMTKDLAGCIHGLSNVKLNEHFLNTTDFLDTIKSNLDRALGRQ
experimentSummary: IDH2 R140Q enzymatic cofactor depletion assay (diaphorase/resazurin)
Type: biochemical
condition: IDH2 R140Q enzyme, one hour preincubation with compound, one hour reaction; read-out: Enz R140Q
Hi there, I'd appreciate the recorded IC50 for every entry that follows.

Solved entries (count: 3):
INSERT INTO results (structuresmilesstring, result) VALUES
  ('O=C(Nc1ccc(F)c(C(F)(F)F)c1)Nc1cc(S(=O)(=O)NCC(F)(F)F)ccc1C1=CCOCC1', '0.1 to 1 µM'),
  ('CS(=O)(=O)c1cccc(NC(=O)Nc2cc(S(=O)(=O)NCC(F)(F)F)ccc2-c2ccccc2)c1', '0.1 to 1 µM'),
  ('O=C(Nc1cccc(C(F)(F)F)c1)Nc1cc(S(=O)(=O)Nc2cc[nH]n2)ccc1-c1ccsc1', '1 to 10 µM');

INPUT: Name the recorded IC50 of the item "O=C(Nc1cnccc1Cl)Nc1cc(S(=O)(=O)NCC(F)(F)F)ccc1-c1ccccc1" in your answer.
OUTPUT: 0.1 to 1 µM

---

experimentalTarget: IDH2 R140Q (Homo sapiens (Human), UniProt P48735, R140Q)
experimentSummary: IDH2 R140Q enzymatic cofactor depletion assay (diaphorase/resazurin)
condition: IDH2 R140Q enzyme, one hour preincubation with compound, one hour reaction; read-out: Enz R140Q
Hi there, I'd appreciate the recorded IC50 for every entry that follows.

INSERT INTO assay_data (structuresmilesstring, experimentaltarget, result) VALUES
  ('O=C(Nc1cccc(C(F)(F)F)c1)Nc1cc(S(=O)(=O)NC2COC2)ccc1OCC1CC1', 'IDH2 R140Q (Homo sapiens (Human), UniProt P48735, R140Q)', '100 to 1000 nM'),
  ('CS(=O)(=O)c1cccc(-c2ccc(S(=O)(=O)Nc3ccccc3)cc2NC(=O)Nc2cccc(C(F)(F)F)c2)c1', 'IDH2 R140Q (Homo sapiens (Human), UniProt P48735, R140Q)', '1000 to 10000 nM'),
  ('CCOc1ccc(S(=O)(=O)NCC(F)(F)F)cc1NC(=O)Nc1cc(C(F)(F)F)ccn1', 'IDH2 R140Q (Homo sapiens (Human), UniProt P48735, R140Q)', '100 to 1000 nM');

Here's the next entry for you.
INPUT: Name the recorded IC50 of the item "O=C(Nc1cccc(C(F)(F)F)c1)Nc1cc(S(=O)(=O)NC2COC2)ccc1-c1ccsc1" in your answer.
OUTPUT: < 100 nM

---

experimentalTarget: IDH2 R140Q (Homo sapiens (Human), UniProt P48735, R140Q)
experimentSummary: IDH2 R140Q enzymatic cofactor depletion assay (diaphorase/resazurin)
condition: IDH2 R140Q enzyme, one hour preincubation with compound, one hour reaction; read-out: Enz R140Q
measuredProperty: IC50

INSERT INTO results (compound, experimentaltarget, result) VALUES
  ('CCOc1ccc(S(=O)(=O)NCC(F)(F)F)cc1NC(=O)Nc1ncc(Cl)s1 [Compound 191]', 'IDH2 R140Q (Homo sapiens (Human), UniProt P48735, R140Q)', '100 to 1000 nM');

Batch: IC50 for all items listed.
1. O=C(Nc1cccc(C(F)(F)F)c1)Nc1cc(S(=O)(=O)Nc2ccccc2)ccc1-n1cccn1 [Compound 344]
2. O=C(Nc1cccc(C(F)(F)F)c1)Nc1cc(S(=O)(=O)N2CCOCC2)ccc1-c1ccsc1 [Compound 131]
3. CN(c1ccccc1)c1ccc(S(=O)(=O)Nc2ccccc2)cc1NC(=O)Nc1cccc(C(F)(F)F)c1 [Compound 341]
4. O=C(Nc1cccc(CO)c1)Nc1cc(S(=O)(=O)NCC(F)(F)F)ccc1-c1ccccc1 [Compound 80]
5. O=C(Nc1nccc(C(F)(F)F)n1)Nc1cc(S(=O)(=O)NCC(F)(F)F)ccc1-c1ccccc1 [Compound 106]

OUTPUT:
1. 1000 to 10000 nM
2. 100 to 1000 nM
3. 1000 to 10000 nM
4. 100 to 1000 nM
5. 100 to 1000 nM

Batch: IC50 for all items listed.
1. Cc1cccc(-c2ccc(S(=O)(=O)NC3CCOCC3)cc2NC(=O)Nc2cccc(C(F)(F)F)c2)c1 [Compound 47]
2. Cc1cccc(-c2ccc(S(=O)(=O)NC3CC3)cc2NC(=O)Nc2cccc(C(F)(F)F)c2)c1 [Compound 48]
3. O=C(Nc1ccc(F)c(Cl)c1)Nc1cc(S(=O)(=O)NCC(F)(F)F)ccc1-c1ccccc1 [Compound 40]
4. Cc1nccn1-c1ccc(S(=O)(=O)Nc2ccccc2)cc1NC(=O)Nc1cccc(C(F)(F)F)c1 [Compound 343]
5. O=C(Nc1cccc(Cl)c1)Nc1cc(S(=O)(=O)NCC(F)(F)F)ccc1C1CCCCO1 (stereo not shown) [Compound 168]
6. O=C(Nc1cccc(C(F)(F)F)c1)Nc1cc(S(=O)(=O)Nc2ccccn2)ccc1-c1ccsc1 [Compound 149]

OUTPUT:
1: 100 to 1000 nM; 2: 1000 to 10000 nM; 3: 100 to 1000 nM; 4: 1000 to 10000 nM; 5: 100 to 1000 nM; 6: 1000 to 10000 nM

---

experimentalTarget: IDH2 R140Q (Homo sapiens (Human), UniProt P48735, R140Q)
experimentSummary: IDH2 R140Q enzymatic cofactor depletion assay (diaphorase/resazurin)
condition: IDH2 R140Q enzyme, one hour preincubation with compound, one hour reaction; read-out: Enz R140Q
Hi there, I'd appreciate the recorded IC50 for every entry that follows.

INSERT INTO assay_data (molecule, measuredproperty, result) VALUES
  ('O=C(Nc1cc(S(=O)(=O)NC2CC2)ccc1-c1ccsc1)Nc1ccc(F)cc1C(F)(F)F [Compound 28]', 'IC50', '100 to 1000 nM'),
  ('O=C(Nc1cc(Cl)cc(Cl)c1)Nc1cc(S(=O)(=O)NC2CC2)ccc1-c1ccsc1 [Compound 26]', 'IC50', '1000 to 10000 nM');

Batch: IC50 for all items listed.
1. CCONS(=O)(=O)c1ccc(-c2ccsc2)c(NC(=O)Nc2cccc(C(F)(F)F)c2)c1 [Compound 139]
2. CCOc1ccc(S(=O)(=O)NC2(C#N)CC2)cc1NC(=O)Nc1cccc(C(F)(F)F)c1 [Compound 181]

OUTPUT:
1. 100 to 1000 nM
2. 100 to 1000 nM

---

Hi there, I'd appreciate the recorded pIC50 for every entry that follows.
experimentalTarget: IDH2 R140Q (Homo sapiens (Human), UniProt P48735, R140Q)
experimentSummary: IDH2 R140Q enzymatic cofactor depletion assay (diaphorase/resazurin)
condition: IDH2 R140Q enzyme, one hour preincubation with compound, one hour reaction; read-out: Enz R140Q
pIC50: −log10 of the molar value.

INSERT INTO assay_data (structuresmilesstring, experimentaltarget, result) VALUES
  ('O=C(Nc1cccc(C(F)(F)F)c1)Nc1cc(S(=O)(=O)NC2COC2)cnc1OCC1CC1', 'IDH2 R140Q (Homo sapiens (Human), UniProt P48735, R140Q)', '6.00 to 7.00'),
  ('CC(C)N(C)c1ccc(S(=O)(=O)Nc2ccccc2)cc1NC(=O)Nc1cccc(C(F)(F)F)c1', 'IDH2 R140Q (Homo sapiens (Human), UniProt P48735, R140Q)', '5.00 to 6.00');

Batch: pIC50 for all items listed.
1. O=C(Nc1cc(S(=O)(=O)NCC(F)(F)F)ccc1-c1ccccc1)Nc1ncccc1Cl
2. O=C(Nc1cccc(C(F)(F)F)c1)Nc1cc(S(=O)(=O)NCC(F)(F)F)ccc1OC1CCOCC1
3. O=C(Nc1cccc(C(F)(F)F)c1)Nc1cc(S(=O)(=O)N2CCCC2)ccc1-c1ccsc1
4. O=C(Nc1cccc(C(F)(F)F)c1)Nc1cc(S(=O)(=O)NCC(F)(F)F)cnc1OCC1CC1
5. O=C(Nc1cccc(C(F)(F)F)c1)Nc1cc(S(=O)(=O)N2CCOCC2)cnc1N1CCOCC1

OUTPUT:
5.00 to 6.00
6.00 to 7.00
5.00 to 6.00
> 7.00
5.00 to 6.00

---

experimentalTarget: IDH2 R140Q (Homo sapiens (Human), UniProt P48735, R140Q)
experimentSummary: IDH2 R140Q enzymatic cofactor depletion assay (diaphorase/resazurin)
condition: IDH2 R140Q enzyme, one hour preincubation with compound, one hour reaction; read-out: Enz R140Q
pIC50: −log10 of the molar value.
measuredProperty: pIC50

INSERT INTO results (compound, measuredproperty, result) VALUES
  ('O=C(Nc1ccc(F)cc1)Nc1cc(S(=O)(=O)Nc2ccccc2)ccc1-c1ccsc1', 'pIC50', '5.00 to 6.00'),
  ('CC(C)c1cccc(NC(=O)Nc2cc(S(=O)(=O)Nc3ccccc3)ccc2-c2ccsc2)c1', 'pIC50', '5.00 to 6.00'),
  ('O=C(Nc1cccc(C(F)(F)F)c1)Nc1cc(S(=O)(=O)NC2CC2)ccc1OCc1ccccc1', 'pIC50', '5.00 to 6.00'),
  ('O=C(Nc1cc(C(F)(F)F)ccn1)Nc1cc(S(=O)(=O)NCC(F)(F)F)ccc1-c1ccccc1', 'pIC50', '6.00 to 7.00'),
  ('O=C(Nc1cncc(C(F)(F)F)c1)Nc1cc(S(=O)(=O)NCC(F)(F)F)ccc1-c1ccccc1', 'pIC50', '6.00 to 7.00');

Batch: pIC50 for all items listed.
1. O=C(Nc1cncc(F)c1)Nc1cc(S(=O)(=O)NCC(F)(F)F)ccc1-c1ccccc1
2. O=C(Nc1cc(F)ccc1Cl)Nc1cc(S(=O)(=O)NCC(F)(F)F)ccc1-c1ccccc1
3. Cc1ccccc1NC(=O)Nc1cc(S(=O)(=O)Nc2ccccc2)ccc1-c1ccsc1
4. O=C(Nc1cccc(Cl)n1)Nc1cc(S(=O)(=O)NCC(F)(F)F)ccc1-c1ccccc1
5. O=C(Nc1cccc(C(F)(F)F)c1)Nc1cc(S(=O)(=O)Nc2ccccc2)ccc1Nc1ccccc1
6. Cc1cc(NC(=O)Nc2cc(S(=O)(=O)NCC(F)(F)F)ccc2-c2ccccc2)nn1C

OUTPUT:
1: 6.00 to 7.00; 2: 6.00 to 7.00; 3: 6.00 to 7.00; 4: 6.00 to 7.00; 5: 5.00 to 6.00; 6: 6.00 to 7.00

Batch: pIC50 for all items listed.
1. O=C(Nc1ccc(F)c(Cl)c1)Nc1cc(S(=O)(=O)NCC(F)(F)F)ccc1C1CCCCO1 (stereo not shown)
2. O=C(Nc1cccc(C(F)(F)F)c1)Nc1cc(S(=O)(=O)N2CCC2)ccc1-c1ccsc1
3. O=C(Nc1cccc(C(F)(F)F)c1)Nc1cc(S(=O)(=O)NC2CCCC2)ccc1-c1ccsc1
4. O=C(Nc1cccc(C(F)(F)F)c1)Nc1cc(S(=O)(=O)N2CCS(=O)(=O)CC2)ccc1-c1ccsc1
5. CCc1ccccc1NC(=O)Nc1cc(S(=O)(=O)Nc2ccccc2)ccc1-c1ccsc1

OUTPUT:
1: 6.00 to 7.00; 2: 5.00 to 6.00; 3: 6.00 to 7.00; 4: 6.00 to 7.00; 5: 6.00 to 7.00

Batch: pIC50 for all items listed.
1. CN(c1ccccc1)S(=O)(=O)c1ccc(-c2ccsc2)c(NC(=O)Nc2cccc(C(F)(F)F)c2)c1
2. O=C(Nc1ncc(Cl)s1)Nc1cc(S(=O)(=O)NCC(F)(F)F)ccc1C1CCCCO1 (stereo not shown)
3. O=C(Nc1cccc(C(F)(F)F)c1)Nc1cc(S(=O)(=O)NC2CC2)cnc1-n1ccnc1
4. O=C(Nc1cccc(C(F)(F)F)c1)Nc1cc(S(=O)(=O)Nc2ccccc2)ccc1-c1ccccn1
5. O=C(Nc1cccc(C(F)(F)F)c1)Nc1cc(S(=O)(=O)NC2COC2)ccc1-c1ccccc1
6. O=C(Nc1nccs1)Nc1cc(S(=O)(=O)NCC(F)(F)F)ccc1-c1ccccc1
7. Cc1ccc(C)c(NC(=O)Nc2cc(S(=O)(=O)Nc3ccccc3)ccc2-c2ccsc2)c1
8. O=C(Nc1cccc(C(F)(F)F)c1)Nc1cc(S(=O)(=O)Nc2ccccc2)ccc1-c1ccncc1

OUTPUT:
5.00 to 6.00
6.00 to 7.00
6.00 to 7.00
5.00 to 6.00
> 7.00
6.00 to 7.00
6.00 to 7.00
5.00 to 6.00
